experimental-readout: melting point

compound=CN1CCN(c2n[nH]c(-c3ccc(Cl)cc3)c2-c2ccncc2)CC1 measurement="262 to 264 °C"
compound=OCc1nccc2c1[nH]c1ccccc12 measurement="228 to 230 °C"
compound=C(=C\c1nc(COc2ccc(-n3ccnc3)cc2)co1)/c1ccccc1 measurement="160 to 162 °C"
compound=Cc1cc(Nc2c3ccccc3nc3ccccc23)ccc1N measurement="256 to 257 °C"
compound="CCOC(=O)C1Cc2cc(Cl)ccc2NC1=O (stereo not given)" measurement="173 to 175 °C"
compound=ClCc1cc(Cl)nc(Cl)n1 measurement="32 to 33 °C"
compound=Nc1cc(-n2cc(C(=O)O)c(=O)c3cc(F)c(NC4COC4)c(Cl)c32)c(F)cc1F measurement="240 to 244 °C"
compound=CO[C@]12C[C@@H](CCN3CCC(O)(c4ccc(Cl)cc4)CC3)CN(C)[C@@H]1Cc1c[nH]c3cccc2c13 measurement="133 to 139 °C"
compound="OC1CSC(Oc2cc(-c3cncnc3)cnc2Cl)C(O)C1O (stereo not given)" measurement="174 to 189 °C"
compound=CCCc1c(OCCCCCCc2cccc(OC(C)=O)c2OC(C)=O)ccc(C(=O)O)c1O measurement="120 to 122 °C"

====

Below is a list of entries, each paired with its recorded melting point value.
experimental-readout: melting point

molecule=Cc1c(Br)ccc(S(C)(=O)=O)c1C1=NOC(CCl)(CCl)C1 measurement="144 to 145 °C"
molecule=N#CC1=C(Nc2ccc(F)c(F)c2)CCC1 measurement="126 to 128 °C"
molecule=Cc1ccc2cccc(OCc3c(Cl)ccc(C4OCCO4)c3Cl)c2n1 measurement="82 to 85 °C"
molecule="CC1CN(c2cccc(F)c2)N=C1N (centres undefined)" measurement="78 to 80 °C"
molecule=CC(=O)COc1cc(N2C(=O)c3ccccc3C2=O)ccc1N1C(=O)c2ccccc2C1=O measurement="300 °C"
molecule=CCP(=O)(CC)Cc1ccccc1O measurement="127 °C"
molecule="CC(C)(C)OC(=O)C=CC1C(C(=O)OC(C#N)c2ccc(F)c(Oc3ccccc3)c2)C1(C)C (centres undefined)" measurement="114 °C"
molecule="CC1(C)C(C#CC(=O)OCC(Cl)(Cl)Cl)C1C(=O)OC(C#N)c1cccc(Oc2ccccc2)c1 (centres undefined)" measurement="101 °C"
molecule="CCC(C(=O)C(C)C(O)C(C)CCCC(=O)c1c(NC(C)=O)cc(C)c(O)c1C(=O)O)C1OC(CC)(C2CCC(O)(CC)C(C)O2)CC1C (centres undefined)" measurement="190 to 192 °C"
molecule="CCCc1c(OCCCS(=O)c2nc3ccc(C(=O)O)cc3[nH]2)ccc(C(C)=O)c1O (centres undefined)" measurement="173 to 175 °C"
molecule=COC(=O)CN(CC(F)(F)F)c1ccc(C#N)c(C(F)(F)F)c1 measurement="144 to 145 °C"
molecule=COc1cc2c(cc1S(=O)(=O)Cl)CCC2 measurement="75 to 77 °C"
molecule=CC(C)(C)NS(=O)(=O)c1ccccc1-c1ccc(NC(=O)C(C)(C)Nc2cccc(C#N)c2)cc1 measurement="190 to 193 °C"
molecule=CS(=O)(=O)c1cc(C(=O)NC(=N)N)c(NCc2ccco2)cc1Cl measurement="96 to 102 °C"
molecule=O=C(Cn1nccc1-c1ccc(Oc2ccc(F)cc2)cc1)N1CCCC1 measurement="90 to 95 °C"
molecule=Cn1c(=O)c2ncn3c2n(c1=O)CC=C3c1cccc(C(F)(F)F)c1 measurement="287 to 290 °C"
molecule=CCCCc1nc2c(N)nc3ccc(OCc4ccccc4)cc3c2n1CCCCN measurement="161 to 164 °C"
molecule=NCCCCNc1ncc2ncnc(Nc3ccc(F)c(Cl)c3)c2n1 measurement="160 to 162 °C"
molecule="CN(C)C(=O)CC1(C)OCCc2c1[nH]c1c3c(ccc21)CCCC3 (centres undefined)" measurement="176 to 178 °C"
molecule=C=C(CC(=O)Nc1cc(Cl)cc(Cl)c1)C(=O)OCCCC measurement="69.5 °C"
molecule="O=C(O)c1cccc(CNC(=O)C2Cc3ccccc3N2S(=O)(=O)c2ccc(-c3cccc(C(F)(F)F)c3)cc2)c1 (centres undefined)" measurement="96 °C"
molecule=CS(=O)(=O)Nc1cc(NC(=O)CCl)c([N+](=O)[O-])cc1Oc1ccccc1 measurement="194 to 195 °C"
molecule=CN(C)C(=O)CON(Cc1ccc(F)cc1)C(=O)C=C(O)C(=O)O measurement="118 to 120 °C"
molecule=COc1ccc2cc([C@H](C)C(=O)OCC(=O)N(C)CC(=O)NCCO[N+](=O)[O-])ccc2c1 measurement="79 to 81 °C"
molecule=COC(=O)N[C@H](C(=O)N[C@@H](Cc1ccccc1)[C@@H](O)CN(Cc1ccc(-c2cncs2)cc1)NC(=O)[C@@H](NC(=O)OC)C(C)(C)C)C(C)C measurement="114 to 115 °C"
molecule=CCOCc1nc2c(N)nc3ccccc3c2n1NCCCNC(=O)NC(C)C measurement="174 to 177 °C"
molecule=Cc1ccc(C)c(OCCCC(=O)O)c1 measurement="63 to 65 °C"
molecule=COc1cc2ncnc(N3CCN(C(=O)Nc4ccncc4)CC3)c2cc1OC measurement="141 to 143 °C"
molecule=CCCCOc1nc(N)c2[nH]c(=O)n(CCCCNS(=O)(=O)c3ccc(CCC(=O)O)cc3)c2n1 measurement="210 to 211 °C"
molecule=CC(=O)N(C)c1cccc(S(=O)(=O)c2ccc(N)cc2)c1 measurement="178 to 180 °C"
molecule="CCCCC(Cc1ccc(OCCNC(=O)c2ccc(-c3ccccc3)cc2)cc1)C(=O)O (centres undefined)" measurement="130 to 131 °C"
molecule=COC(=O)c1ccc(-c2nc(-c3cccc(C(F)(F)F)c3)co2)cc1 measurement="134 to 135 °C"
molecule=O=Cc1ccc(Sc2nc3ncccc3[nH]2)o1 measurement="188 °C"
molecule=C=CCc1c(O)ccc2c1ccc(=O)n2CC=C measurement="205 to 206 °C"
molecule=O=CC(=Cc1ccc(O)cc1)C(C=O)=Cc1ccc(O)cc1 measurement="244 to 246 °C"
molecule=Cc1oc(Cl)cc1C(=O)O measurement="126 to 127 °C"
molecule=COc1cc(Nc2c(C#N)cnc3cc(-c4ccc(CN5CCOCC5)c(CN5CCOCC5)c4)ccc23)c(Cl)cc1Cl measurement="198 to 200 °C"
molecule=CC(=O)C(=NNc1ccc(Oc2ccccc2)cc1)Sc1ccc(Cl)cc1 measurement="152 to 155 °C"
molecule="CC(=O)OC1Cc2ccccc2N(C#N)c2ccccc21 (centres undefined)" measurement="108 to 119 °C"
